Assign pIC50 to each entry below.
TESTED_TARGET: human TRPV1 (hTRPV1) (Homo sapiens)
Sequence (Q8NER1 whole entry): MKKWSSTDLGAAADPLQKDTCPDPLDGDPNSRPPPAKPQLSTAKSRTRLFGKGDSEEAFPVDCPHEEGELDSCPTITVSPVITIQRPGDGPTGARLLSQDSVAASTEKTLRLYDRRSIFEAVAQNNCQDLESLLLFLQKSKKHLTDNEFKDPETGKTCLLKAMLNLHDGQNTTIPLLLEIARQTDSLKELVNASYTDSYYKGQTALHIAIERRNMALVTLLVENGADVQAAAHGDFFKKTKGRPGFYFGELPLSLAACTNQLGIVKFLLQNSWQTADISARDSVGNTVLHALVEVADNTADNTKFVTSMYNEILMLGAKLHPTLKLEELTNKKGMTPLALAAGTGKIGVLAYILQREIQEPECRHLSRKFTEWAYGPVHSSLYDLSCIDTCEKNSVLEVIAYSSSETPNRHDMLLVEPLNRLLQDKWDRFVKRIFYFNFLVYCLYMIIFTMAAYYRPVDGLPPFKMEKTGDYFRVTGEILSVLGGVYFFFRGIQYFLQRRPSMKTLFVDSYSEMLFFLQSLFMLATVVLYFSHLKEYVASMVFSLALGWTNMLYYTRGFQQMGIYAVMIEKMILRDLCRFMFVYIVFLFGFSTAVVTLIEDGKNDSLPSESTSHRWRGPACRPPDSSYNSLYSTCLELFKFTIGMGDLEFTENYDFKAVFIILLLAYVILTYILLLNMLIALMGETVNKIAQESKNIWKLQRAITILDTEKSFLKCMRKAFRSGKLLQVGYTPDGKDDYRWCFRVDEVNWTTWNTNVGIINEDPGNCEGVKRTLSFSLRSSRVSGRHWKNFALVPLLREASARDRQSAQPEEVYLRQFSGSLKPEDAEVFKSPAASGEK
METHOD_NOTES: Ca2+ influx assay, antagonism against capsaicin in hTRPV1-HEK recombinant cells
STUDY_CONDITIONS: capsaicin 10 nM as activator, Fluo4-NW fluorescence, read-out: hTRPV1 IC50 [cap]
pIC50: −log10 of the molar value.

# input Data request, read-out pIC50, for CC1(c2cc(C3CC3C(=O)Nc3cccc4[nH]c(=O)[nH]c34)n(-c3cccc(Cl)c3)n2)CC1 (stereo not drawn)
# output < 6.80

# input Consider the compound O=C(/C=C/c1ccc(C(F)(F)F)nc1SC1CCCCC1)Nc1cccc2[nH]c(=O)[nH]c12 and give its measured pIC50.
# output < 7.00

# input Requested field: pIC50. Item: CC1(c2cc(/C=C/C(=O)Nc3cccc4[nH]c(=O)[nH]c34)n(-c3cccc(Cl)c3)n2)CC1
# output < 6.80

Source of measurements: patent US12653814B2
